Hey, just so you know, these numbers are from patent US8519110B2.

Tested on: rabbit reticulocyte lysate system
Assay: In vitro translation efficiency of capped luciferase mRNA with 31-base poly(A) tail, method II transcripts
Type: biochemical
Details: experiment 1
MEASURED_QUANTITY: Translation efficiency in comparison to m^7GpppG-LUC-(A)31 mRNA, Experiment No. 1

compound="CO[C@@H]1[C@H](O)[C@@H](COP(=O)(O)OP(O)(=[Se])OP(=O)(O)OC[C@H]2O[C@@H](n3cnc4c(=O)[nH]c(N)nc43)[C@H](O)[C@@H]2O)O[C@H]1n1c[n+](C)c2c(=O)[nH]c(N)nc21 (single isomer, unassigned) [m2^7,2′-OGppSepG (D2), m2^7,2′-OGppSepG]" reported_value=2.53
compound="Nc1nc2c(ncn2[C@@H]2O[C@H](COP(=O)(O)OP(=O)(O)OP(=O)(O)OC[C@H]3O[C@@H](n4cnc5c(N)ncnc54)[C@H](O)[C@@H]3O)[C@@H](O)[C@H]2O)c(=O)[nH]1 [ApppG, reference compound]" reported_value=0.27
compound="Cn1c[n+]([C@@H]2O[C@H](COP(=O)(O)OP(=O)(O)OP(=O)(O)OC[C@H]3O[C@@H](n4cnc5c(=O)[nH]c(N)nc54)[C@H](O)[C@@H]3O)[C@@H](O)[C@H]2O)c2nc(N)[nH]c(=O)c21 [m^7GpppG, m^7G(5′)ppp(5′)G, reference compound]" reported_value=1.00
compound="CO[C@@H]1[C@H](O)[C@@H](COP(=O)(O)OP(O)(=[Se])OP(=O)(O)OC[C@H]2O[C@@H](n3cnc4c(=O)[nH]c(N)nc43)[C@H](O)[C@@H]2O)O[C@H]1n1c[n+](C)c2c(=O)[nH]c(N)nc21 (single isomer, unassigned) [m2^7,2′-OGppSepG (D1), m2^7,2′-OGppSepG]" reported_value=2.05
compound="CO[C@H]1[C@@H](O)[C@H]([n+]2cn(C)c3c(=O)[nH]c(N)nc32)O[C@@H]1COP(=O)([O-])OP(=O)(O)OP(=O)(O)OC[C@H]1O[C@@H](n2cnc3c(=O)[nH]c(N)nc32)[C@H](O)[C@@H]1O [m2^7,3′-OGpppG, 7-methyl(3′-O-methyl)GpppG, reference compound]" reported_value=1.98
